test system: MUTZ-3 cells; experiment: cytotoxicity by Propidium Iodide, relative viability (Rv90); details: human
Form field: Rv90 (one value per entry).

{"SMILES_DATA": "C=O", "TARGET_OR_TEST_SYSTEM": "MUTZ-3 cells", "UNIT_LABEL": "µM", "Rv90": 80}
{"SMILES_DATA": "CC=Cc1ccc(O)c(OC)c1", "TARGET_OR_TEST_SYSTEM": "MUTZ-3 cells", "UNIT_LABEL": "µM", "Rv90": 300}
{"SMILES_DATA": "O=CC=Cc1ccccc1", "TARGET_OR_TEST_SYSTEM": "MUTZ-3 cells", "UNIT_LABEL": "µM", "Rv90": 120}
{"SMILES_DATA": "C=CCc1ccc(O)c(OC)c1", "TARGET_OR_TEST_SYSTEM": "MUTZ-3 cells", "UNIT_LABEL": "µM", "Rv90": 300}
